The origin of these recorded values is ChEMBL document CHEMBL1201861.

tested on: LB771-HNC; experiment: cells; type: functional, cell-based, Homo sapiens; conditions: Homo sapiens, LB771-HNC;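 also: growth inhibition of LB771-HNC human cells, read out with a cell viability assay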
Description: SANGER: Inhibition of human LB771-HNC cell growth in a cell viability assay.
pIC50: −log10 of the molar value.
Below: a set of entries, each annotated with reported pIC50.

compound	pIC50
C[C@]1(O)C[C@@H](c2nc(-c3ccc4ccc(-c5ccccc5)nc4c3)c3c(N)nccn32)C1	6.59
C=CCNC1=C2C[C@@H](C)C[C@H](OC)[C@H](O)[C@@H](C)/C=C(\C)[C@H](OC(N)=O)[C@@H](OC)/C=C\C=C(/C)C(=O)NC(=CC1=O)C2=O	< 6.00
CN(c1ncccc1CNc1nc(Nc2ccc3c(c2)CC(=O)N3)ncc1C(F)(F)F)S(C)(=O)=O	< 5.59
COc1cc(F)c(F)c(Nc2ccc(I)cc2F)c1NS(=O)(=O)C1(CC(O)CO)CC1 (stereo not drawn)	< 5.30
COc1cc([C@@H]2c3cc4c(cc3[C@@H](O[C@@H]3O[C@@H]5CO[C@@H](C)O[C@H]5[C@H](O)[C@H]3O)[C@H]3COC(=O)[C@H]23)OCO4)cc(OC)c1O [ETOPOSIDE]	< 4.80
CCOc1nc(NC(=O)Cc2cc(OC)ccc2OC)cc(N)c1C#N	< 5.00
COc1ccc(-c2ccc3c(N4CCOC[C@@H]4C)nc(N4CCOC[C@@H]4C)nc3n2)cc1CO	< 5.70
CS(=O)(=O)CCNCc1ccc(-c2ccc3ncnc(Nc4ccc(OCc5cccc(F)c5)c(Cl)c4)c3c2)o1	< 5.70

====

tested on: UACC-257; assay: cells; format: functional, cell-based, Homo sapiens; conditions: Homo sapiens, UACC-257
Description: SANGER: Inhibition of human UACC-257 cell growth in a cell viability assay.
pIC50: −log10 of the molar value.

compound	target	pIC50
CC(=O)O[C@@]12CO[C@@H]1C[C@H](O)[C@@]1(C)C(=O)[C@H](O)C3=C(C)[C@@H](OC(=O)[C@H](O)[C@@H](NC(=O)OC(C)(C)C)c4ccccc4)C[C@@](O)([C@@H](OC(=O)c4ccccc4)[C@H]21)C3(C)C [DOCETAXEL]	UACC-257	< 8.00
CC1=C2C[C@H]3[C@@H](CC=C4C[C@@H](O)CC[C@@]43C)[C@@H]2CC[C@]12O[C@@H]1C[C@H](C)CN[C@H]1[C@H]2C [CYCLOPAMINE]	UACC-257	< 4.80
CCC1=C[C@@H]2CN(C1)Cc1c([nH]c3ccccc13)[C@@](C(=O)OC)(c1cc3c(cc1OC)N(C)[C@H]1[C@@](O)(C(=O)OC)[C@H](OC(C)=O)[C@]4(CC)C=CCN5CC[C@]31[C@@H]54)C2 [VINORELBINE]	UACC-257	7.52
CCOc1nc(NC(=O)Cc2cc(OC)ccc2OC)cc(N)c1C#N	UACC-257	< 5.00
COc1cc([C@@H]2c3cc4c(cc3[C@@H](O[C@@H]3O[C@@H]5CO[C@@H](C)O[C@H]5[C@H](O)[C@H]3O)[C@H]3COC(=O)[C@H]23)OCO4)cc(OC)c1O [ETOPOSIDE]	UACC-257	< 4.80
Nc1ccn([C@@H]2O[C@H](CO)[C@@H](O)[C@@H]2O)c(=O)n1 [CYTARABINE]	UACC-257	< 5.70

====

tested on: NCI-H2228; assay: cells; type: functional, cell-based, Homo sapiens; conditions: Homo sapiens, NCI-H2228;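 also: growth inhibition of human NCI-H2228 cells, read out by a cell viability assay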
Description: SANGER: Inhibition of human NCI-H2228 cell growth in a cell viability assay.
value.kind: IC50

compound	result
Cn1cncc1[C@@](N)(c1ccc(Cl)cc1)c1ccc2c(c1)c(-c1cccc(Cl)c1)cc(=O)n2C	4.98 µM
C=CCNC1=C2C[C@@H](C)C[C@H](OC)[C@H](O)[C@@H](C)/C=C(\C)[C@H](OC(N)=O)[C@@H](OC)/C=C\C=C(/C)C(=O)NC(=CC1=O)C2=O	0.354 µM
Cc1cnc(-c2cnc(NCCNc3ccc(C#N)cn3)nc2-c2ccc(Cl)cc2Cl)[nH]1	> 2.56 µM
CN(Cc1cnc2nc(N)nc(N)c2n1)c1ccc(C(=O)N[C@@H](CCC(=O)O)C(=O)O)cc1 [METHOTREXATE]	> 0.2 µM
COc1ccc(C2=N[C@@H](c3ccc(Cl)cc3)[C@@H](c3ccc(Cl)cc3)N2C(=O)N2CCNC(=O)C2)c(OC(C)C)c1	> 8 µM
CC(=O)O[C@@]12CO[C@@H]1C[C@H](O)[C@@]1(C)C(=O)[C@H](O)C3=C(C)[C@@H](OC(=O)[C@H](O)[C@@H](NC(=O)OC(C)(C)C)c4ccccc4)C[C@@](O)([C@@H](OC(=O)c4ccccc4)[C@H]21)C3(C)C	0.00725 µM
CCOc1nc(NC(=O)Cc2cc(OC)ccc2OC)cc(N)c1C#N	> 10 µM
CN(C)C/C=C/C(=O)Nc1cc2c(Nc3ccc(F)c(Cl)c3)ncnc2cc1O[C@H]1CCOC1	> 0.5 µM
O=C(c1cc(Cc2n[nH]c(=O)c3ccccc23)ccc1F)N1CCN(C(=O)C2CC2)CC1	> 5 µM
